- target.or.system: human GLP-1 receptor (human, UniProt P43220 24-463)
- assay.name: cell-based or functional assay
Positions of bridges follow the written chain, without caps; N, C: chain ends. Non-standard residues stand in square brackets, D forms with d. No end group written: not given here. *: point of attachment. Acetyl(2-(4-imidazolyl)) = O=C(Cc1c[nH]cn1)*; Aib = CC(C)(N)C(=O)O
reported.metric: In vitro activity (%) compared with native peptide: vs GLP-1
Give bare numbers, in %.

Examples with answers:
1. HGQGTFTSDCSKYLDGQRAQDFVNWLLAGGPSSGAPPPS (ends and bridges not checked) [triple agonist of SEQ ID NO: 48] ... 1.5
2. {Acetyl(2-(4-imidazolyl))}-[Aib]QGTFTSDKSSYLDERAAQDFVQWLLDGGPSSGAPPPSS (not fully specified; also: ring from underlined residues, positions not shown) [triple agonist of SEQ ID NO: 38] ... 2.3
3. H[Aib]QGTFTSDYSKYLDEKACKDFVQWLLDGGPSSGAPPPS (bridge 16-20; not fully specified) [triple agonist of SEQ ID NO: 32] ... 151

With those in mind, consider the next binder.
The recorded In vitro activity (%) compared with native peptide: vs GLP-1 for Y[Aib]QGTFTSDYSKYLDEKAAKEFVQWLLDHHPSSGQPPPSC (bridge 16-20; not fully specified) [triple agonist of SEQ ID NO: 75] is 35.1
